Data provenance is patent US9006257B2.

TGT: Recombinant human mPGES-1 (Homo sapiens)
Construct: made in house; host or cells: CHO cells
Sequence (O14684 whole entry): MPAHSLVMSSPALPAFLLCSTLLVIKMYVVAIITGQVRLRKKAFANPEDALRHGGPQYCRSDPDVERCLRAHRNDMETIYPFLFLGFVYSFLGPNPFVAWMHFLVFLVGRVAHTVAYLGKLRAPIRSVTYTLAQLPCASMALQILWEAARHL
ASSAY DETAILS: In-vitro mPGES-1 inhibitor screening (inhibition of PGE2 formation from PGH2, HTRF detection)
Assay type: biochemical
DETAILS: 10 μM test compound; crude microsomal fraction, 15 μM PGH2; read-out: Percentage inhibition at 10 μM
Recorded inhibition at 10 µM, one value per entry.
Entry rule: numbers only, all in %.

1) CC(C)Nc1ncnc2c(NC(=O)c3c(Cl)ccc(CNC(=O)C(C)(C)C)c3F)cccc12: 94.5
2) COc1c(CNC(=O)C(C)(C)C)ccc(Cl)c1C(=O)Nc1cccc2c(Oc3cccc(C(F)(F)F)c3)ncnc12: 91
3) Cc1nc(N2CCOCC2)c2cccc(NC(=O)c3c(Cl)ccc(CNC(=O)C(C)(C)C)c3F)c2n1: 93.4
4) CC(C)(C)C(=O)NCc1ccc(Cl)c(C(=O)Nc2cccc3c(N[C@H]4CC[C@H](C(F)(F)F)CC4)nccc23)c1F: 99.1
5) CC(C)(C)C(=O)NCc1ccc(Cl)c(C(=O)Nc2cccc3c(O[C@H]4CC[C@@H](C(F)(F)F)CC4)nccc23)c1: 97.7
6) CC(C)(C)C(=O)NCc1ccc(Cl)c(C(=O)Nc2cccc3c(Oc4ccc(C(F)(F)F)cc4)nccc23)c1: 97.7

Now look at this one.
[in] Data request, read-out inhibition at 10 µM, for `CC(C)(C)C(=O)NCc1ccc(Cl)c(C(=O)Nc2cccc3c(Oc4cccc(C(F)(F)F)c4)ncnc23)c1`
[out] 98.9
